molecular target: E. tenella complex II (Eimeria tenella, UniProt U6KGY0+U6KWN9); test: Inhibition of succinate-dUQ (SQR) activity of E. tenella complex II; settings: E. tenella, SQR activity of complex II; read-out: IC50 determined for succinate-dUQ activity
Sequence (U6KGY0 entry or part of it): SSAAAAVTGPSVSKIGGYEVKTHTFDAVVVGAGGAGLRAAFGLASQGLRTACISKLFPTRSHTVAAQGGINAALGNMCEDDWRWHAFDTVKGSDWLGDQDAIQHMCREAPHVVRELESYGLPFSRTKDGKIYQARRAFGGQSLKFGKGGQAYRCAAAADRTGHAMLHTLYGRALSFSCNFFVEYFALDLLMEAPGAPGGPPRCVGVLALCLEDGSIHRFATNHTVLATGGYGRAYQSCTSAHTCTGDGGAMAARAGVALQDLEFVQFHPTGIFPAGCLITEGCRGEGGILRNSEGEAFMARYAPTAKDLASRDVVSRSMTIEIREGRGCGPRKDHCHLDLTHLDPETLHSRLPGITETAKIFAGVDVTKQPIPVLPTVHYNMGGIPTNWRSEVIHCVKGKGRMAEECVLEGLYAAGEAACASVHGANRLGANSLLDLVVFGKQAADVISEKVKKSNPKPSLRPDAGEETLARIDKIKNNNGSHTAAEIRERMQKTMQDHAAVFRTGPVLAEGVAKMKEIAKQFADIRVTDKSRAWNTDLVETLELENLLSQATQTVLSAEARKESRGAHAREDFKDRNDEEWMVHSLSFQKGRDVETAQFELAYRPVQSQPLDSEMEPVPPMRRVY
Sequence (U6KWN9 entry or part of it): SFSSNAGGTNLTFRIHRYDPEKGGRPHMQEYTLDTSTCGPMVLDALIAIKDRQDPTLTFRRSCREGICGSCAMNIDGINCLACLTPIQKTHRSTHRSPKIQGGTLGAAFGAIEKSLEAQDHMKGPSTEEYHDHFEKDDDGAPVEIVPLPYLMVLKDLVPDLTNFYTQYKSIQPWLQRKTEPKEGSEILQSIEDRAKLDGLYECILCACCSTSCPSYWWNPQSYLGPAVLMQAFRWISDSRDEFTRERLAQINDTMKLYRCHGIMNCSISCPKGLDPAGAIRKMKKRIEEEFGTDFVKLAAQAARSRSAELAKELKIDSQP
pIC50: −log10 of the molar value.
measured endpoint: pIC50

# molecule, measured endpoint, recorded result
data = [
    ("Cc1cc(O)c2c(c1)O[C@@]1(C)CC[C@H]3C(C)(C)CCC[C@]34CO[C@@H]2[C@H]41 [Siccanin, siccanin]", "pIC50", "< 4.30"),
]

###

Item-by-item account of IC50
biological target: succinate-cytochrome c reductase activity (Complex II-III); test: Inhibition of succinate-cytochrome c reductase activity (Complex II-III) of E. tenella mitochondria-rich fraction; details: E. tenella mitochondria-rich fraction, complex II-III activity; read-out: IC50 of Succinate-cyt c Activity
measured endpoint: IC50

# structure smiles string, recorded result
rows = [
    ("CC(C)Oc1cccc(NC(=O)c2ccccc2C(F)(F)F)c1", "> 50 µM"),
    ("COc1[nH]c(=O)c(C(=O)[C@@H](C)C[C@H](C)[C@@H](Cl)CCl)c(O)c1OC", "> 50 µM"),
    ("Cc1cc(O)c2c(c1)O[C@@]1(C)CC[C@H]3C(C)(C)CCC[C@]34CO[C@@H]2[C@H]41", "4 µM"),
    ("CC1=C(C(=O)Nc2ccccc2)SCCO1", "> 50 µM"),
]
